- Test system: 186277-243-T-J2-PDC complex spheroid viability
- experiment: Anticancer human tumor 186277-243-T-J2-PDC patient-derived colon adenocarcinoma cell line growth inhibition [GQUAD]
- experimental-conditions: second compound 3.16 µM; first compound 0.0316 µM; active compounds read low
Param label: returns yes when viability, T/C < 30%, returns no otherwise, including exact equality.

Would you please look over these solved cases?
[[record]]
compound = "O=C(c1cc(Cc2n[nH]c(=O)c3ccccc23)ccc1F)N1CCN(C(=O)C2CC2)CC1 + CN(C)c1ccc(Nc2c3ccc(NC(=O)CCN4CCCC4)cc3nc3cc(NC(=O)CCN4CCCC4)ccc23)cc1"
cat = "no"

[[record]]
compound = "O=c1[nH]cc(F)c(=O)[nH]1 + Cc1cnc(CNC(=O)c2c(=O)c3ccc(N4CCCN(C)CC4)nc3n3c2sc2ccccc23)cn1"
cat = "no"

[[record]]
compound = "CC1COCCN1c1cc(C2(O)CC3CCC(C2)O3)c2cnn(-c3ccn[nH]3)c2n1 (stereo not given) + CN(C)c1ccc(Nc2c3ccc(NC(=O)CCN4CCCC4)cc3nc3cc(NC(=O)CCN4CCCC4)ccc23)cc1"
cat = "no"

[[record]]
compound = "CCCS(=O)(=O)Nc1ccc(F)c(C(=O)c2c[nH]c3ncc(-c4ccc(Cl)cc4)cc23)c1F + Cc1cnc(CNC(=O)c2c(=O)c3ccc(N4CCCN(C)CC4)nc3n3c2sc2ccccc23)cn1"
cat = "no"


Now consider the entry below.
Input: Answer whether the compound CCc1c2c(nc3ccc(O)cc13)-c1cc3c(c(=O)n1C2)COC(=O)[C@]3(O)CC + CN(C)c1ccc(Nc2c3ccc(NC(=O)CCN4CCCC4)cc3nc3cc(NC(=O)CCN4CCCC4)ccc23)cc1 has viability, T/C strictly less than 30%
Output: yes

###

- System: 186277-243-T-J2-PDC complex spheroid viability
- experiment: Anticancer human tumor 186277-243-T-J2-PDC cell line growth inhibition [GQUAD]; active means viability on the fitted dose curve at most 10% of control; inactive means the rest;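 also: spheroids exposed to drugs for 7 days; 100% = DMSO vehicle control viability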
- experimental-conditions: second compound 1 µM; first compound 0.316 µM
Please state which outcome applies, choosing from active, inactive

The examples below pair each entry with its known result.
[[record]]
molecule = "O=C(c1cc(Cc2n[nH]c(=O)c3ccccc23)ccc1F)N1CCN(C(=O)C2CC2)CC1 + CN(C)c1ccc(Nc2c3ccc(NC(=O)CCN4CCCC4)cc3nc3cc(NC(=O)CCN4CCCC4)ccc23)cc1"
cat = "inactive"

[[record]]
molecule = "CC1COCCN1c1cc(C2(S(C)(=N)=O)CC2)nc(-c2ccnc3[nH]ccc23)n1 (stereo not drawn) + CN(C)c1ccc(Nc2c3ccc(NC(=O)CCN4CCCC4)cc3nc3cc(NC(=O)CCN4CCCC4)ccc23)cc1"
cat = "inactive"

[[record]]
molecule = "CC(=O)O[C@H]1C(=O)[C@@]2(C)[C@H]([C@H](OC(=O)c3ccccc3)[C@]3(O)C[C@H](OC(=O)[C@H](O)[C@@H](NC(=O)c4ccccc4)c4ccccc4)C(C)=C1C3(C)C)[C@]1(OC(C)=O)CO[C@@H]1C[C@@H]2O + Cc1[nH]c2ccc(F)cc2c1-c1nc2c3cccnc3c3ncccc3c2[nH]1"
cat = "active"

[[record]]
molecule = "CC1COCCN1c1cc(-c2ccnn2C)c2ccnc(-c3ccn[nH]3)c2n1 (stereo not drawn) + Cc1[nH]c2ccc(F)cc2c1-c1nc2c3cccnc3c3ncccc3c2[nH]1"
cat = "active"

[[record]]
molecule = "COc1ncnc(C2CC2)c1-c1ncc2cnn(Cc3ccc(-c4nc(C(F)(F)F)cn4C(C)C)cc3)c2n1 + CN(C)c1ccc(Nc2c3ccc(NC(=O)CCN4CCCC4)cc3nc3cc(NC(=O)CCN4CCCC4)ccc23)cc1"
cat = "inactive"


Input: State the result this test recorded for CC(C)n1c(=O)n(C)c2cnc3cc(F)c(-c4ccc(OCCCN5CCCCC5)nc4)cc3c21 + Cc1cnc(CNC(=O)c2c(=O)c3ccc(N4CCCN(C)CC4)nc3n3c2sc2ccccc23)cn1 .
Output: inactive

Input: Per the assay record, what outcome was assigned to Cc1cccc(N(C)C(=O)C2C(O)CCN2c2nc(C)cc(C(F)(F)F)c2C#N)c1 (stereo not drawn) + Cc1[nH]c2ccc(F)cc2c1-c1nc2c3cccnc3c3ncccc3c2[nH]1 ?
Output: inactive

Input: Please share the test call associated with CCCS(=O)(=O)Nc1ccc(F)c(C(=O)c2c[nH]c3ncc(-c4ccc(Cl)cc4)cc23)c1F + Cc1[nH]c2ccc(F)cc2c1-c1nc2c3cccnc3c3ncccc3c2[nH]1 .
Output: inactive

Input: Record lookup: outcome of this test for CCc1c2c(nc3ccc(O)cc13)-c1cc3c(c(=O)n1C2)COC(=O)[C@]3(O)CC + CN(C)c1ccc(Nc2c3ccc(NC(=O)CCN4CCCC4)cc3nc3cc(NC(=O)CCN4CCCC4)ccc23)cc1 ?
Output: inactive

Input: Recorded call for Nc1ccn(C2OC(CO)C(O)C2(F)F)c(=O)n1 (stereo not drawn) + Cc1cnc(CNC(=O)c2c(=O)c3ccc(N4CCCN(C)CC4)nc3n3c2sc2ccccc23)cn1 ?
Output: inactive

Input: Short answer needed: outcome of this test for CC1COCCN1c1cc(C2(O)CC3CCC(C2)O3)c2cnn(-c3ccn[nH]3)c2n1 (stereo not drawn) + CN(C)c1ccc(Nc2c3ccc(NC(=O)CCN4CCCC4)cc3nc3cc(NC(=O)CCN4CCCC4)ccc23)cc1 ?
Output: active

Input: Which outcome did this test record for the molecule O=C(NO)c1cnc(N2CCN(S(=O)(=O)c3ccc4ccccc4c3)CC2)nc1 + Cc1[nH]c2ccc(F)cc2c1-c1nc2c3cccnc3c3ncccc3c2[nH]1 ?
Output: inactive

###

- Test system: 186277-243-T-J2-PDC complex spheroid viability
- experiment: Anticancer human tumor 186277-243-T-J2-PDC cell line growth inhibition [GQUAD];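 also: spheroids exposed to drugs for 7 days; 100% = DMSO vehicle control viability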
- experimental-conditions: second compound 3.16 µM; first compound 0.000999 µM; active compounds read low
Label Y when viability, T/C < 50%; otherwise N.

Input: Record CCc1c2c(nc3ccc(O)cc13)-c1cc3c(c(=O)n1C2)COC(=O)[C@]3(O)CC + Cc1[nH]c2ccc(F)cc2c1-c1nc2c3cccnc3c3ncccc3c2[nH]1 : is its viability, T/C strictly below 50%?
Output: N

Input: Hello, is viability, T/C of the following compound strictly smaller than 50%? Cc1[nH]c2ccccc2c1CCNCc1ccc(/C=C/C(=O)NO)cc1 + CN(C)c1ccc(Nc2c3ccc(NC(=O)CCN4CCCC4)cc3nc3cc(NC(=O)CCN4CCCC4)ccc23)cc1
Output: N

Input: Confirm or reject: viability, T/C of Cn1ncnc1[C@H]1c2n[nH]c(=O)c3cc(F)cc(c23)N[C@@H]1c1ccc(F)cc1 + Cc1[nH]c2ccc(F)cc2c1-c1nc2c3cccnc3c3ncccc3c2[nH]1 lies strictly below 50%
Output: N

###

- Tested on: 186277-243-T-J2-PDC complex spheroid viability
- experiment: Anticancer human tumor 186277-243-T-J2-PDC cell line growth inhibition [GQUAD];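 also: spheroids exposed to drugs for 7 days; 100% = DMSO vehicle control viability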
- experimental-conditions: second compound 3.16 µM; first compound 0.316 µM; active compounds read low
Below is a list of entries, each paired with its recorded viability, T/C value.
Give the value in % but do not write % after it.

Example entries and their recorded answers appear below.
[[record]]
molecule = "CC1COCCN1c1cc(-c2ccnn2C)c2ccnc(-c3ccn[nH]3)c2n1 (stereo not given) + CN(C)c1ccc(Nc2c3ccc(NC(=O)CCN4CCCC4)cc3nc3cc(NC(=O)CCN4CCCC4)ccc23)cc1"
system_name = "186277-243-T-J2-PDC complex spheroid viability"
readout_units = "%"
experimental_value = 6.06

[[record]]
molecule = "CC(C)n1c(=O)n(C)c2cnc3cc(F)c(-c4ccc(OCCCN5CCCCC5)nc4)cc3c21 + Cc1[nH]c2ccc(F)cc2c1-c1nc2c3cccnc3c3ncccc3c2[nH]1"
system_name = "186277-243-T-J2-PDC complex spheroid viability"
readout_units = "%"
experimental_value = 105

[[record]]
molecule = "CC(C)(O)C1CCC(Nc2ccc3ncc(-c4cccc(C(F)(F)F)c4)n3n2)CC1 (stereo not given) + CN(C)c1ccc(Nc2c3ccc(NC(=O)CCN4CCCC4)cc3nc3cc(NC(=O)CCN4CCCC4)ccc23)cc1"
system_name = "186277-243-T-J2-PDC complex spheroid viability"
readout_units = "%"
experimental_value = 108

[[record]]
molecule = "O=C(c1cc(Cc2n[nH]c(=O)c3ccccc23)ccc1F)N1CCN(C(=O)C2CC2)CC1 + Cc1[nH]c2ccc(F)cc2c1-c1nc2c3cccnc3c3ncccc3c2[nH]1"
system_name = "186277-243-T-J2-PDC complex spheroid viability"
readout_units = "%"
experimental_value = 113

[[record]]
molecule = "COc1ncnc(C2CC2)c1-c1ncc2cnn(Cc3ccc(-c4nc(C(F)(F)F)cn4C(C)C)cc3)c2n1 + Cc1[nH]c2ccc(F)cc2c1-c1nc2c3cccnc3c3ncccc3c2[nH]1"
system_name = "186277-243-T-J2-PDC complex spheroid viability"
readout_units = "%"
experimental_value = 97.3

[[record]]
molecule = "CC[C@@]1(O)C(=O)OCc2c1cc1n(c2=O)Cc2cc3c(CN(C)C)c(O)ccc3nc2-1 + Cc1cnc(CNC(=O)c2c(=O)c3ccc(N4CCCN(C)CC4)nc3n3c2sc2ccccc23)cn1"
system_name = "186277-243-T-J2-PDC complex spheroid viability"
readout_units = "%"
experimental_value = 27.7

[[record]]
molecule = "Cc1cccc(N(C)C(=O)C2C(O)CCN2c2nc(C)cc(C(F)(F)F)c2C#N)c1 (stereo not given) + Cc1cnc(CNC(=O)c2c(=O)c3ccc(N4CCCN(C)CC4)nc3n3c2sc2ccccc23)cn1"
system_name = "186277-243-T-J2-PDC complex spheroid viability"
readout_units = "%"
experimental_value = 47.9

[[record]]
molecule = "O=C(NO)c1cnc(N2CCN(S(=O)(=O)c3ccc4ccccc4c3)CC2)nc1 + Cc1cnc(CNC(=O)c2c(=O)c3ccc(N4CCCN(C)CC4)nc3n3c2sc2ccccc23)cn1"
system_name = "186277-243-T-J2-PDC complex spheroid viability"
readout_units = "%"
experimental_value = 0.15

[[record]]
molecule = "CCCS(=O)(=O)Nc1ccc(F)c(C(=O)c2c[nH]c3ncc(-c4ccc(Cl)cc4)cc23)c1F + Cc1[nH]c2ccc(F)cc2c1-c1nc2c3cccnc3c3ncccc3c2[nH]1"
system_name = "186277-243-T-J2-PDC complex spheroid viability"
readout_units = "%"
experimental_value = 97.9

[[record]]
molecule = "Cn1ncnc1[C@H]1c2n[nH]c(=O)c3cc(F)cc(c23)N[C@@H]1c1ccc(F)cc1 + Cc1cnc(CNC(=O)c2c(=O)c3ccc(N4CCCN(C)CC4)nc3n3c2sc2ccccc23)cn1"
system_name = "186277-243-T-J2-PDC complex spheroid viability"
readout_units = "%"
experimental_value = 48.7


Input: Provide the reported viability, T/C (system: 186277-243-T-J2-PDC complex spheroid viability) for CC1COCCN1c1cc(C2(S(C)(=N)=O)CC2)nc(-c2ccnc3[nH]ccc23)n1 (stereo not given) + CN(C)c1ccc(Nc2c3ccc(NC(=O)CCN4CCCC4)cc3nc3cc(NC(=O)CCN4CCCC4)ccc23)cc1
Output: 98.8

Input: Fill in: viability, T/C on 186277-243-T-J2-PDC complex spheroid viability, entry CC1COCCN1c1cc(C2(S(C)(=N)=O)CC2)nc(-c2ccnc3[nH]ccc23)n1 (stereo not given) + Cc1cnc(CNC(=O)c2c(=O)c3ccc(N4CCCN(C)CC4)nc3n3c2sc2ccccc23)cn1
Output: 50.6

Input: Give viability, T/C only, for C=CC(=O)N1CCN(c2nc(=O)n(-c3c(C)ccnc3C(C)C)c3nc(-c4c(O)cccc4F)c(F)cc23)C(C)C1 (stereo not given) + Cc1[nH]c2ccc(F)cc2c1-c1nc2c3cccnc3c3ncccc3c2[nH]1 , using 186277-243-T-J2-PDC complex spheroid viability data.
Output: 92

Input: Check 186277-243-T-J2-PDC complex spheroid viability data and give viability, T/C for COc1ccc([C@@H](O)c2cc(-c3ncnc4cc(N5CCOCC5)ccc34)c(F)cc2Cl)nn1 + CN(C)c1ccc(Nc2c3ccc(NC(=O)CCN4CCCC4)cc3nc3cc(NC(=O)CCN4CCCC4)ccc23)cc1 .
Output: 108

Input: Given Cc1cccc(N(C)C(=O)C2C(O)CCN2c2nc(C)cc(C(F)(F)F)c2C#N)c1 (stereo not given) + CN(C)c1ccc(Nc2c3ccc(NC(=O)CCN4CCCC4)cc3nc3cc(NC(=O)CCN4CCCC4)ccc23)cc1 , report its viability, T/C on 186277-243-T-J2-PDC complex spheroid viability.
Output: 106
